Reference for the values: the NIST ThermoML archive (doi:10.1016/j.fluid.2011.12.029)

details: 313.15 K; 55000 kPa; Liquid; Vibrating tube method

# compound, unit_spec, mass density
records = [
    ("CCCC[n+]1cccc(C)c1.N#C[N-]C#N [1-butyl-3-methylpyridinium dicyanamide]", "kg/m3", 1060.43),
    ("CCCCCCCC[n+]1cccc(C)c1.F[B-](F)(F)F [N-octyl-3-methylpyridinium tetrafluoroborate]", "kg/m3", 1111.71),
    ("CCCC[n+]1ccccc1.F[B-](F)(F)F [1-butylpyridinium tetrafluoroborate]", "kg/m3", 1227.32),
    ("CCC[n+]1ccccc1Oc1ccc(Cl)c[n+]1CCOS(=O)(=O)[O-].F[B-](F)(F)F", "kg/m3", 1265.2),
    ("CCCC[n+]1ccccc1.O=S(=O)([O-])C(F)(F)F [1-butylpyridinium trifluoromethanesulfonate]", "kg/m3", 1332.73),
]

* * *

details: 293.15 K; 60000 kPa; Liquid; Vibrating tube method
// reported mass density per item

# molecule, mass density / kg/m3
data = [
    ("CCCC[n+]1ccccc1.F[B-](F)(F)F [1-butylpyridinium tetrafluoroborate]", 1241.96),
    ("CCCCCCCC[n+]1cccc(C)c1.F[B-](F)(F)F [N-octyl-3-methylpyridinium tetrafluoroborate]", 1125.67),
    ("CCC[n+]1ccccc1Oc1ccc(Cl)c[n+]1CCOS(=O)(=O)[O-].F[B-](F)(F)F", 1280.22),
    ("CCCC[n+]1cccc(C)c1.N#C[N-]C#N [1-butyl-3-methylpyridinium dicyanamide]", 1073.41),
]

* * *

conditions: 323.15 K; 100 kPa; Liquid; Vibrating tube method
measured_metric: mass density (kg/m3)

# compound, result_number
rows = [
    ("CCCC[n+]1cccc(C)c1.N#C[N-]C#N [1-butyl-3-methylpyridinium dicyanamide]", 1034.21),
    ("CCCC[n+]1ccccc1.O=S(=O)([O-])C(F)(F)F [1-butylpyridinium trifluoromethanesulfonate]", 1296.31),
    ("CCC[n+]1ccccc1Oc1ccc(Cl)c[n+]1CCOS(=O)(=O)[O-].F[B-](F)(F)F", 1235.3),
    ("CCCC[n+]1ccccc1.F[B-](F)(F)F [1-butylpyridinium tetrafluoroborate]", 1196.96),
    ("CCCCCCCC[n+]1cccc(C)c1.F[B-](F)(F)F [N-octyl-3-methylpyridinium tetrafluoroborate]", 1079.26),
]

* * *

// reported mass density per item
settings: 328.15 K; 10000 kPa; Liquid; Vibrating tube method

# molecule, mass density [kg/m3]
measured = [
    ("CCCC[n+]1ccccc1.O=S(=O)([O-])C(F)(F)F [1-butylpyridinium trifluoromethanesulfonate]", 1298.11),
    ("CCCCCCCC[n+]1cccc(C)c1.F[B-](F)(F)F [N-octyl-3-methylpyridinium tetrafluoroborate]", 1081.32),
    ("CCC[n+]1ccccc1Oc1ccc(Cl)c[n+]1CCOS(=O)(=O)[O-].F[B-](F)(F)F", 1236.25),
    ("CCCC[n+]1cccc(C)c1.N#C[N-]C#N [1-butyl-3-methylpyridinium dicyanamide]", 1035.31),
    ("CCCC[n+]1ccccc1.F[B-](F)(F)F [1-butylpyridinium tetrafluoroborate]", 1198.11),
]

* * *

details: 323.15 K; 30000 kPa; Liquid; Vibrating tube method
// reported mass density per item

# compound, unit_spec, mass density
data = [
    ("CCCCCCCC[n+]1cccc(C)c1.F[B-](F)(F)F [N-octyl-3-methylpyridinium tetrafluoroborate]", "kg/m3", 1094.65),
    ("CCC[n+]1ccccc1Oc1ccc(Cl)c[n+]1CCOS(=O)(=O)[O-].F[B-](F)(F)F", "kg/m3", 1248.63),
    ("CCCC[n+]1ccccc1.F[B-](F)(F)F [1-butylpyridinium tetrafluoroborate]", "kg/m3", 1210.86),
    ("CCCC[n+]1cccc(C)c1.N#C[N-]C#N [1-butyl-3-methylpyridinium dicyanamide]", "kg/m3", 1046.05),
    ("CCCC[n+]1ccccc1.O=S(=O)([O-])C(F)(F)F [1-butylpyridinium trifluoromethanesulfonate]", "kg/m3", 1313.34),
]

* * *

conditions: 323.15 K; 60000 kPa; Liquid; Vibrating tube method
// reported mass density per item

# molecule, unit_spec, mass density
records = [
    ("CCCC[n+]1cccc(C)c1.N#C[N-]C#N [1-butyl-3-methylpyridinium dicyanamide]", "kg/m3", 1056.49),
    ("CCCCCCCC[n+]1cccc(C)c1.F[B-](F)(F)F [N-octyl-3-methylpyridinium tetrafluoroborate]", "kg/m3", 1107.78),
    ("CCCC[n+]1ccccc1.F[B-](F)(F)F [1-butylpyridinium tetrafluoroborate]", "kg/m3", 1222.84),
    ("CCC[n+]1ccccc1Oc1ccc(Cl)c[n+]1CCOS(=O)(=O)[O-].F[B-](F)(F)F", "kg/m3", 1260.31),
    ("CCCC[n+]1ccccc1.O=S(=O)([O-])C(F)(F)F [1-butylpyridinium trifluoromethanesulfonate]", "kg/m3", 1328.01),
]

* * *

conditions: 323.15 K; 35000 kPa; Liquid; Vibrating tube method
measured_metric: mass density (kg/m3)

# compound, measured_metric, result_number
rows = [
    ("CCCC[n+]1cccc(C)c1.N#C[N-]C#N [1-butyl-3-methylpyridinium dicyanamide]", "mass density", 1047.94),
    ("CCCC[n+]1ccccc1.O=S(=O)([O-])C(F)(F)F [1-butylpyridinium trifluoromethanesulfonate]", "mass density", 1315.79),
    ("CCCCCCCC[n+]1cccc(C)c1.F[B-](F)(F)F [N-octyl-3-methylpyridinium tetrafluoroborate]", "mass density", 1096.93),
    ("CCCC[n+]1ccccc1.F[B-](F)(F)F [1-butylpyridinium tetrafluoroborate]", "mass density", 1212.95),
    ("CCC[n+]1ccccc1Oc1ccc(Cl)c[n+]1CCOS(=O)(=O)[O-].F[B-](F)(F)F", "mass density", 1250.7),
]

* * *

// reported mass density per item
conditions: 308.15 K; 25000 kPa; Liquid; Vibrating tube method

# molecule, mass density [kg/m3]
measured = [
    ("CCCC[n+]1ccccc1.O=S(=O)([O-])C(F)(F)F [1-butylpyridinium trifluoromethanesulfonate]", 1321.85),
    ("CCCC[n+]1cccc(C)c1.N#C[N-]C#N [1-butyl-3-methylpyridinium dicyanamide]", 1052.92),
    ("CCCCCCCC[n+]1cccc(C)c1.F[B-](F)(F)F [N-octyl-3-methylpyridinium tetrafluoroborate]", 1101.65),
    ("CCC[n+]1ccccc1Oc1ccc(Cl)c[n+]1CCOS(=O)(=O)[O-].F[B-](F)(F)F", 1256.85),
    ("CCCC[n+]1ccccc1.F[B-](F)(F)F [1-butylpyridinium tetrafluoroborate]", 1218.48),
]

* * *

details: 283.15 K; 15000 kPa; Liquid; Vibrating tube method

# compound, mass density [kg/m3]
records = [
    ("CCCC[n+]1cccc(C)c1.N#C[N-]C#N [1-butyl-3-methylpyridinium dicyanamide]", 1064.33),
    ("CCCC[n+]1ccccc1.F[B-](F)(F)F [1-butylpyridinium tetrafluoroborate]", 1231.84),
    ("CCC[n+]1ccccc1Oc1ccc(Cl)c[n+]1CCOS(=O)(=O)[O-].F[B-](F)(F)F", 1270.98),
    ("CCCCCCCC[n+]1cccc(C)c1.F[B-](F)(F)F [N-octyl-3-methylpyridinium tetrafluoroborate]", 1113.26),
]

* * *

// reported mass density per item
details: 288.15 K; 40000 kPa; Liquid; Vibrating tube method
measured_metric: mass density (kg/m3)

# compound, measured_metric, result_number
records = [
    ("CCCCCCCC[n+]1cccc(C)c1.F[B-](F)(F)F [N-octyl-3-methylpyridinium tetrafluoroborate]", "mass density", 1120.76),
    ("CCCC[n+]1ccccc1.F[B-](F)(F)F [1-butylpyridinium tetrafluoroborate]", "mass density", 1238.24),
    ("CCCC[n+]1cccc(C)c1.N#C[N-]C#N [1-butyl-3-methylpyridinium dicyanamide]", "mass density", 1070.07),
    ("CCC[n+]1ccccc1Oc1ccc(Cl)c[n+]1CCOS(=O)(=O)[O-].F[B-](F)(F)F", "mass density", 1276.87),
]

* * *

conditions: 308.15 K; 10000 kPa; Liquid; Vibrating tube method
± gives the expanded uncertainty stated by the source.
// reported mass density per item

# molecule, mass density
data = [
    ("CCCC[n+]1ccccc1.O=S(=O)([O-])C(F)(F)F [1-butylpyridinium trifluoromethanesulfonate]", "1313.65 ± 0.62 kg/m3"),
    ("CCC[n+]1ccccc1Oc1ccc(Cl)c[n+]1CCOS(=O)(=O)[O-].F[B-](F)(F)F", "1250.57 ± 0.53 kg/m3"),
    ("CCCCCCCC[n+]1cccc(C)c1.F[B-](F)(F)F [N-octyl-3-methylpyridinium tetrafluoroborate]", "1094.35 ± 1.1 kg/m3"),
    ("CCCC[n+]1cccc(C)c1.N#C[N-]C#N [1-butyl-3-methylpyridinium dicyanamide]", "1047.28 ± 0.95 kg/m3"),
    ("CCCC[n+]1ccccc1.F[B-](F)(F)F [1-butylpyridinium tetrafluoroborate]", "1211.82 ± 0.49 kg/m3"),
]
